Test protocol: NCI Yeast Anticancer Drug Screen. Data for the CLN2oe strain (AID 163);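 also: 0% = growth of vehicle-only control cultures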
Cond: S. cerevisiae CLN2oe strain, at 100.0 µM
The panel holds about 79,000 compounds, 15% with a hit somewhere; the sample as a whole holds those more often. Active and inactive are the calls of the source. Rule as the data show it: active = growth inhibition above about 70%; inactive = the rest.
Thanks in advance; please answer with one of these: 1.0 for active, 0.0 for inactive

Exercise: Look up the recorded call for O=C1c2ccccc2C(=O)c2sc(Nc3ccccc3Cl)nc21 in this test.
Solution: 1.0

Exercise: Record lookup: outcome of this test for CCN(CC)CC(=O)c1ccc2cc(Cl)c3ccccc3c2c1 ?
Solution: 1.0

Exercise: What did the test return for COc1ccc(C(C)c2cc3c(cc2OC(C)O)OCO3)cc1 (stereo not drawn) ?
Solution: 0.0

Exercise: Please indicate how the test categorized COc1ccc2c(c1)CCCC(Br)C2=O (stereo not drawn) .
Solution: 1.0

Exercise: Dear colleague, could you share the recorded outcome for S=C(NCc1ccccn1)N/N=C/c1ccccn1 when you have a moment?
Solution: 1.0

Exercise: Outcome logged for Clc1nc(Cl)nc(Nc2cccc3ccccc23)n1 in this assay:
Solution: 1.0

Exercise: Assay result, entry COC1/C=C\C=C(/C)C(=O)NC2=CC(=O)C(=O)C(=C2O)CC(C)CC(OC)C(O)C(C)/C=C(\C)C1OC(N)=O (stereo not drawn) — outcome?
Solution: 1.0

Exercise: Per the records of this test, what outcome belongs to NC(=S)N1N=C2c3ccccc3CC[C@@H]2[C@@H]1c1ccccc1 ?
Solution: 1.0

Exercise: Which outcome did this test record for the compound CCOC(=O)/C(=C\c1cccc(C)c1)C(C)=O ?
Solution: 1.0

Exercise: Which outcome did this test record for the compound OC1(c2ccccc2)C2CC=CC2C1(c1ccccc1)c1ccccc1 (stereo not drawn) ?
Solution: 0.0

Exercise: Could you kindly confirm the outcome this assay logged for C[n+]1c(-c2ccc(/C=N/NC(=O)c3ccc(C(=O)N/N=C/c4ccc(-c5cn6ccccc6[n+]5C)cc4)cc3)cc2)cn2ccccc21 ?
Solution: 0.0

Exercise: // return assay outcome for Cc1ccccc1NC(=O)c1c(C)oc2c1C(=O)c1ccccc1C2=O
Solution: 1.0

Exercise: Which outcome was assigned to CNC(=O)OCc1c2ccncc2c(C)c2c1[nH]c1ccccc12 in this test?
Solution: 0.0

Exercise: Fill in: this test's call for BrC1C2CCC3OC3C12 (stereo not drawn) is ___
Solution: 1.0

Exercise: Returns: the outcome recorded for O=C(O)c1c2ccc(Cl)cc2nc2[nH]c(=O)[nH]c(=O)c12 in this assay.
Solution: 0.0

Exercise: For Cc1ccc(S(=O)(=O)Nc2cccc3cccnc23)cc1 , which call appears in the assay record?
Solution: 0.0

Exercise: Test call for this compound, please: O=C1SS(=O)c2ccccc21 (stereo not drawn)
Solution: 0.0

Exercise: Can you look up the reported call for O=[N+]([O-])c1ccc(C(c2c[nH]c3ccccc23)c2c[nH]c3ccccc23)cc1 for me?
Solution: 1.0

Exercise: Dear all, I need the recorded test outcome for CC(C)(Br)C(=O)/C=C/c1ccccc1 , thank you.
Solution: 0.0

Exercise: Assay result, entry O=C(C#Cc1ccccc1)Nc1ccccc1 — outcome?
Solution: 1.0

Exercise: # fetch the recorded call for Oc1c2c(c(O)c3ccccc13)C1(N=N2)c2ccccc2Oc2ccccc21 here
Solution: 1.0

Exercise: Status in this test for CCCNC(=O)OCc1c(COC(=O)NCCC)c(-c2ccc(Cl)c(Cl)c2)n2c1CCC2 ?
Solution: 0.0

Exercise: Dear colleague, could you share the recorded outcome for O=C(C(Cl)=C(N1CCCCC1)N1CCCCC1)C(Cl)Cl when you have a moment?
Solution: 0.0
